Dear all, this message contains GI50 results, target or system HCT-15.

Compound: CC1CCCc2c(C#N)c(N)nc(-c3ccc(Cl)cc3)c21 (stereo unspecified)
GI50: 11.7 µM
--
Compound: CC12OC3(C(O)C1O)C(C(=O)O[C@H]3CO[Si](C)(C)C(C)(C)C)C2S(=O)(=O)c1ccccc1 (stereo partly specified)
GI50: 33.7 µM
--
Compound: N#Cc1ccc(C2OCC3CC=CCC3CO2)cc1 (stereo unspecified)
GI50: 61.2 µM

Now let's try a different one.
q: # query: GI50 | item COC(=O)CCNC(=O)OCc1ccccc1 | system: HCT-15
a: > 100 µM

---

Tested on: SF-268
Experiment: NCI tumour cell line growth inhibition, 48 h
Activity calls are given as the source filed them. No stated cut-off is given here; in the data, active = GI50 up to about 1.1 µM and inactive = higher.
Reported GI50 values for a set of compounds

Example entries begin here.
Compound: CCCn1c2c(c3ccccc3c1=O)C(=O)c1ccccc1-2
Measured Target: SF-268
GI50: > 73.1 µM (inactive)
//
Compound: [O-][N+](CCO)(CCO)c1ncnc2[nH]cnc12
Measured Target: SF-268
GI50: > 100 µM (inactive)
//
Compound: O=C(Cn1c2ccc(Br)cc2c2nc3ccccc3nc21)N/N=C/c1ccccc1
Measured Target: SF-268
GI50: 87.3 µM (inactive)
//
Compound: N#C/C(C(=O)CCl)=C1\Nc2ccccc2O1
Measured Target: SF-268
GI50: 2.67 µM (inactive)
//
Compound: COc1ccc(N[S+]([O-])c2ccccc2OC)cc1 (stereo unspecified)
Measured Target: SF-268
GI50: 7.28 µM (inactive)
//
Compound: Cc1cccc(N2C(=O)C3c4[nH]c5ccc(C)cc5c4C4CCC(C(C)(C)C)CC4C3C2=O)c1 (stereo unspecified)
Measured Target: SF-268
GI50: 15.5 µM (inactive)
//
Compound: CC1=CC2c3cccc4[nH]cc(c34)CC2N(C)C1 (stereo unspecified)
Measured Target: SF-268
GI50: > 100 µM (inactive)
//
Compound: O=C1C(Cl)C(c2cccc(Cl)c2)N1c1ccc(-n2c(S)nc3ccccc3c2=O)cc1 (stereo unspecified)
Measured Target: SF-268
GI50: 12.6 µM (inactive)

q: Fill in the recorded GI50 for this compound, with SF-268 as test system: Cc1c(C)c(C)c(Cn2[nH]c(=O)n(C)c2=O)c(C)c1C
a: > 100 µM (inactive)

q: Provide the documented GI50 with SF-268 as the system for NC1=NC(=O)C2(NN1)c1ccccc1-c1ccccc12
a: > 10 µM (inactive)

---

Tested on: K562
Assay: NCI tumour cell line growth inhibition, 48 h
Activity calls are given as the source filed them. Rule as the data show it: active = GI50 up to about 1.1 µM and inactive = higher.
Choose one outcome from this list and give only that: 1.0 (active), 0.0 (inactive)

Compound: [O-][N+](CCO)(CCO)c1ncnc2[nH]cnc12
Category Label: 0.0
--
Compound: S=C1Cc2c([nH]c3ccccc23)-c2ccccc2N1
Category Label: 0.0
--
Compound: NC1=NC(=O)C2(NN1)c1ccccc1-c1ccccc12
Category Label: 0.0
--
Compound: CC1=C(C(=O)Nc2ccc([N+](=O)[O-])cc2)C(c2ccco2)C(C(=O)Nc2ccc([N+](=O)[O-])cc2)=C(C)N1
Category Label: 0.0
--
Compound: CN(C)C(=O)Oc1ccc(-c2cn3cc(NC(=O)c4ccccc4)ccc3n2)cc1
Category Label: 0.0
--
Compound: CCOC(=O)c1cccn1S(=O)(=O)c1cc(Cl)ccc1NC(=O)CC
Category Label: 0.0
--
Compound: COc1cc([C@@H]2C3C(=O)c4ccccc4C3[C@@H](c3cc(OC)c(OC)c(OC)c3)C23Cc2ccccc2C3=O)cc(OC)c1OC (some centres not stated)
Category Label: 0.0
--
Compound: O=C(O)C(Br)C(Br)c1ccccc1[N+](=O)[O-] (configuration not stated)
Category Label: 0.0

q: Please let me know the test result on file for O=C1C2=C(c3ccccc31)C(c1cccc(Cl)c1)NC(S)=N2 (configuration not stated) .
a: 0.0

q: Outcome? O=C1/C(=C/c2ccc(O)c([N+](=O)[O-])c2)CCC/C1=C\c1ccc(O)c([N+](=O)[O-])c1
a: 0.0

---

Tested on: ACHN
Assay: NCI tumour cell line growth inhibition, 48 h
Activity calls are given as the source filed them. Cut-off read from the data, not from the text of the source: active = GI50 up to about 1.1 µM and inactive = higher.
Reported values of GI50 for individual entries

Compound: CCC(C)COC(=O)c1ccc(/N=C\c2ccc(/C=N/c3ccc(C(=O)OCC(C)CC)cc3)cc2)cc1 (stereo not given)
GI50: > 100 µM (inactive)
--
Compound: CC1Oc2c(c(=O)oc3ccccc23)[C@@]1(C)CC1C[C@H](C)C(=O)O1 (stereo not given in full)
GI50: 24.4 µM (inactive)
--
Compound: N#CC1Cc2cc3c(cc21)OCO3 (stereo not given)
GI50: > 100 µM (inactive)
--
Compound: NC1=NC(=O)C2(NN1)c1ccccc1-c1ccccc12
GI50: 6.17 µM (inactive)
--
Compound: CCOC(=O)NC(Nc1ccc(F)cc1F)(C(F)(F)F)C(F)(F)F
GI50: > 100 µM (inactive)
--
Compound: CC1=COC(C)(C=C(C#N)C#N)CC1 (stereo not given)
GI50: > 100 µM (inactive)

q: Recorded GI50 for CCC1(Cl)C(=O)NC(=O)N(C2CC(O)C(CO)O2)C1N=[N+]=[N-] (stereo not given) , please?
a: > 100 µM (inactive)

q: What value of GI50 has been recorded for this entry: O=C1C=CC(=O)N1Nc1ccc([N+](=O)[O-])cc1[N+](=O)[O-]
a: > 100 µM (inactive)

q: What does the record list as GI50 for CS/C(c1ccccc1)=[N+](\[O-])Cc1ccccc1 ?
a: > 100 µM (inactive)

q: I have this compound here, CCN(CC)C(=S)SNc1ccc(S(N)(=O)=O)cc1 , and I need its recorded GI50.
a: 45.1 µM (inactive)

q: Which GI50 reading was recorded for the compound C[n+]1c2ccccc2c(C(=O)NC(CCCNC(=N)N)C(=O)O)c2ccccc21 (stereo not given) ?
a: > 100 µM (inactive)

---

Tested on: UACC-62
Experiment: NCI tumour cell line growth inhibition, 48 h
The source made the active and inactive calls. Rule as the data show it: active = GI50 up to about 1.1 µM and inactive = higher.
Could you please pick one outcome from this set? active, inactive

Completed entries (count: 2):
Compound: CCNC1=C(NC(=O)c2ccc(F)cc2)C(=O)c2ccccc2C1=O
Category Label: inactive
--
Compound: CC1=CCC2(C#N)CCC1C2=O (configuration not stated)
Category Label: inactive

q: What outcome does the record of this test show for O=C(O)C(Br)C(Br)c1ccccc1[N+](=O)[O-] (configuration not stated) ?
a: inactive

q: Test call for this compound, please: CS/C(c1ccccc1)=[N+](\[O-])Cc1ccccc1
a: inactive

q: Hi, sorry to bother you, what did the test record for Cc1nnc(N)nc1/C=C\c1cccs1 ?
a: inactive

q: What classification did O=C(Nc1c(-c2nc3ccccc3[nH]2)sc(=S)n1-c1ccccc1)c1ccccc1 end up with in this test?
a: inactive

q: GET /call?item= COC(=O)CC(=O)NCC1=CCC(=O)CC1 returns the recorded outcome of this test.
a: inactive

---

Tested on: NCI-H23
Test: NCI tumour cell line growth inhibition, 48 h
The source made the active and inactive calls. Cut-off read from the data, not from the text of the source: active = GI50 up to about 1.1 µM and inactive = higher.
Parameter GI50: see the listing below.

Recorded GI50, per entry:
Compound: O=S(=O)(O)c1ccc2c(/N=N/c3ccc(Cl)cc3)c(O)ccc2c1
Measured Target: NCI-H23
GI50: > 100 µM (inactive)

Compound: COc1cccc(NC(=O)C(C)(C)C)c1SSc1c(NC(=O)C(C)(C)C)cccc1OC
Measured Target: NCI-H23
GI50: 35 µM (inactive)

Compound: Cc1nc(Cl)nc(Cl)c1C
Measured Target: NCI-H23
GI50: > 100 µM (inactive)

Compound: N#Cc1cc2c(cc1Cl)Sc1nccn1S2(=O)=O
Measured Target: NCI-H23
GI50: 1.51 µM (inactive)

Compound: O=C(COc1ccc(Cl)cc1)N1N=C(c2ccc(Cl)cc2)CC1(O)c1ccccc1 (stereo unspecified)
Measured Target: NCI-H23
GI50: 13.1 µM (inactive)

The record that follows has no GI50 shown yet.
q: What value of measured GI50 is listed for O=C(O)CCSC(=S)Nc1cccc(F)c1 ?
a: 36.1 µM (inactive)

---

Tested on: SNB-19
Test: NCI tumour cell line growth inhibition, 48 h
Activity calls are given as the source filed them. Cut-off read from the data, not from the text of the source: active = GI50 up to about 1.1 µM and inactive = higher. Where a SMILES comes first, the peptide text is derived from it. [ ]: non-standard residue; d: D form. The star is where a group is joined. Bn2Val = CC(C)[C@@H](C(=O)*)N(Cc1ccccc1)Cc1ccccc1; NH(3,4-diMeO-benzyl) = COc1ccc(CN*)cc1OC; NMeV = CN[C@H](C(=O)O)C(C)C
Measured Property: GI50

Check out these entries, answers already filled in.
Molecule: CC1=C[C@]2(CC(C)C3C(CC4(C)C5CCC6C(C)(C)C(=O)CC[C@@]67C[C@@]57CC[C@]34C)O2)OC1=O (some centres undefined)
GI50: 15.7 µM (inactive)
//
Molecule: COc1cc(C(=O)n2c3ccc(Br)cc3c3nc4ccccc4nc32)cc(OC)c1OC
GI50: 51.6 µM (inactive)
//
Molecule: O=C1C=CC(=O)N1Nc1ccc([N+](=O)[O-])cc1[N+](=O)[O-]
GI50: > 100 µM (inactive)
//
Molecule: CCn1c(-c2ccccc2)cs/c1=N\C(P(=O)(O)O)P(=O)(O)O
GI50: > 100 µM (inactive)
//
Molecule: Nc1nc(Sc2ccc([N+](=O)[O-])c3nonc23)c2nc[nH]c2n1
GI50: 15.8 µM (inactive)
//
Molecule: CCOP(=O)(OCC)C(C)(CC)NC(=O)C(C(F)(F)F)C(F)(F)F (centres undefined)
GI50: > 100 µM (inactive)

q: Item under review: NC(=O)NC(=O)C1CCC(=O)N1S(=O)(=O)c1ccc(Cl)cc1 (centres undefined) . Reported GI50?
a: > 100 µM (inactive)

q: Quick check: GI50 of CCOC(=O)C(=O)N1C(C)=C(C(=O)OCC)CC(C(=O)OCC)=C1C ?
a: > 100 µM (inactive)

q: Form field: reported GI50 of COc1ccc(CNC(=O)[C@@H]2CCCN2C(=O)[C@@H]2CCCN2C(=O)[C@H](C(C)C)N(C)C(=O)[C@@H](NC(=O)[C@H](C(C)C)N(Cc2ccccc2)Cc2ccccc2)C(C)C)cc1OC (Bn2Val-V[NMeV]PP-{NH(3,4-diMeO-benzyl)})
a: 15.9 µM (inactive)

q: Find the recorded GI50 belonging to [O-][S+](Cc1cnc2ccccc2c1)c1nc2ccccc2nc1-c1cccs1 (centres undefined) and report it.
a: 22.4 µM (inactive)

q: Fill in the blank: the reported GI50 of C[S+](C)CC(=O)c1ccc2c(c1)Sc1ccccc1O2 is ____.
a: 5.51 µM (inactive)

q: Given the entry Cc1cccc(N2C(=O)C3ON(C(C(N)=O)c4ccccc4)C(c4c5ccccc5c(Cl)c5ccccc45)C3C2=O)c1C (centres undefined) , report its measured GI50.
a: 8.85 µM (inactive)
